biological target: HIV-1 HXB2 envelope glycoprotein gp41 (N-trimer of the prehairpin intermediate) (HIV-1 strain HXB2, UniProt P04578 512-856); test: cell-based or functional assay
Bridges are numbered along the chain shown (N, C = ends). [ ]: non-standard residue; d: D form.
IC50, HXB2 pseudovirion entry class ranges: low (below 0.5 nM), medium (0.5 nM to below 2 nM), high (2 nM or more)

{"BINDER": "Ac-[dK]G[dA][dC][dD][dY][dP][dE][dW][dQ][dW][dL][dC][dA][dA]-NH2 (disulfide 4-13 (inferred); also: trimer linked by PEG9 spacers) [N9N(PIE7)3]", "ASSIGNED_LABEL": "low"}
{"BINDER": "Ac-[dK]G[dA][dC][dD][dY][dP][dE][dW][dQ][dW][dL][dC][dA][dA]-NH2 (disulfide 4-13 (inferred); also: dimer, N- to N-terminal Lys crosslinked by Bis-dPEG9 NHS ester) [N9N(PIE7)2]", "ASSIGNED_LABEL": "medium"}
{"BINDER": "Ac-[dK]G[dA][dC][dD][dY][dP][dE][dW][dQ][dW][dL][dC][dA][dA]-NH2 (disulfide 4-13 (inferred); also: dimer linked N- to C-terminal by zero-length spacer) [N0C(PIE7)2]", "ASSIGNED_LABEL": "medium"}
{"BINDER": "Ac-[dK]G[dA][dC][dD][dY][dP][dE][dW][dQ][dW][dL][dC][dA][dA]-NH2 (disulfide 4-13 (inferred)) [PIE7]", "ASSIGNED_LABEL": "high"}
{"BINDER": "Ac-[dK]G[dA][dC][dD][dY][dP][dE][dW][dQ][dW][dL][dC][dA][dA]-NH2 (disulfide 4-13 (inferred); also: dimer, N- to N-terminal link by zero length spacer) [N0N(PIE7)2]", "ASSIGNED_LABEL": "medium"}
{"BINDER": "Ac-G[dA][dC][dD][dY][dP][dE][dW][dQ][dW][dL][dC][dA][dA]G[dK]-NH2 (disulfide 3-12 (inferred); also: PEG4 attached at the C-terminus) [PIE7-GK-PEG4]", "ASSIGNED_LABEL": "high"}
{"BINDER": "Ac-[dK][dK]G[dA][dC][dE][dS][dP][dE][dW][dR][dW][dL][dC][dA][dA]-NH2 (disulfide 5-14 (inferred)) [2K-PIE1]", "ASSIGNED_LABEL": "high"}
{"BINDER": "Ac-[dH][dP][dC][dD][dY][dP][dE][dW][dQ][dW][dL][dC][dR][dL]G[dK]-NH2 (disulfide 3-12 (inferred)) [PIE14]", "ASSIGNED_LABEL": "high"}
{"BINDER": "Ac-G[dA][dC][dD][dY][dP][dE][dW][dQ][dW][dL][dC][dA][dA]G[dK]-NH2 (disulfide 3-12 (inferred); also: dimer, C- to C-terminal link by PEG5 spacer) [C5C(PIE7-GK)2]", "ASSIGNED_LABEL": "low"}
{"BINDER": "Ac-G[dA][dC][dD][dY][dP][dE][dW][dQ][dW][dL][dC][dA][dA]G[dK]-NH2 (disulfide 3-12 (inferred); also: linked to trifunctional crosslinker LC-TSAT) [PIE7-GK long claw]", "ASSIGNED_LABEL": "low"}

These measurements were taken from patent US20140323392A1.
